B1: glmS ribozyme (parent)
chain: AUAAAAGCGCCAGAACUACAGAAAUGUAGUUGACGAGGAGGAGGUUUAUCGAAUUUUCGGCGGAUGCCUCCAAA

Variants of: B1
Assay: self-cleavage kobs at 160 uM GlcN6P; higher = faster cleavage; RNA array
Settings: with glucosamine-6-phosphate
Fewer inactive variants are shown than the library holds.
Assign self-cleavage kobs at 160 uM GlcN6P to each entry below.

- A33G G37A A39C G63C C68G: < 1e-05 s⁻¹

Could you report self-cleavage kobs at 160 uM GlcN6P for every entry in the following list?
1. C10G A33C
2. A39U U56C
3. C16A G66A
4. G7A G38C
5. U31C G44A

Ans:
1: < 1e-05 s⁻¹; 2: 0.000149 s⁻¹; 3: 6.8e-05 s⁻¹; 4: < 1e-05 s⁻¹; 5: < 1e-05 s⁻¹
